Item-by-item account of IC50
- TESTED TARGET: protein-protein interaction between Kras and SOS1 (biotin-tagged human Kras loaded with GDP, His-tagged human SOS1) (Homo sapiens (Human), UniProt P01116, G12D)
- MEASUREMENT DESCRIPTION: Protein-protein interaction inhibition between Kras and SOS1 (KrasG12D-SOS PPI) using AlphaScreen
- Type: biochemical
- PROTOCOL CONDITIONS: AlphaScreen; biotin-tagged human Kras loaded with GDP, His-tagged human SOS1; read-out: KRAS G12D-SOS PPI IC50
Bridge positions count the residues as written; N and C are the ends. Square brackets hold non-standard residues; d marks the D form. Peptide text beside a SMILES is read from it. * marks the point of attachment. hPhe(3-Cl-4-CF3) = N[C@@H](CCc1ccc(C(F)(F)F)c(Cl)c1)C(=O)O; NMePhe(4-Me) = CN[C@@H](Cc1ccc(C)cc1)C(=O)O; NMeCha = CN[C@@H](CC1CCCCC1)C(=O)O; NMeChg = CN[C@H](C(=O)O)C1CCCCC1; NMeI = CC[C@H](C)[C@H](NC)C(=O)O; NMeD = CN[C@@H](CC(=O)O)C(=O)O; NMeL = CN[C@@H](CC(C)C)C(=O)O; NMeNle = CCCC[C@H](NC)C(=O)O; NMeA = CN[C@@H](C)C(=O)O; Piperidide = C1CCN(*)CC1; Ac5c = NC1(C(=O)O)CCCC1; Aze = O=C(O)[C@@H]1CCN1; Sar = CNCC(=O)O

| COMPOUND | IC50 |
| --- | --- |
| CCCC[C@H]1C(=O)NC2(CCCC2)C(=O)N(C)[C@@H](C2CCCCC2)C(=O)N(C)[C@H](C(=O)N2CCCCC2)CC(=O)N(C)[C@@H](CC(C)C)C(=O)N[C@@H]([C@@H](C)CC)C(=O)N(C)CC(=O)N(C)CC(=O)N(C)[C@@H](CC2CCCCC2)C(=O)N(C)CC(=O)N[C@@H](CCc2ccc(C(F)(F)F)c(Cl)c2)C(=O)N1C [Compound 730] ([NMeL]I[Sar][Sar][NMeCha][Sar][hPhe(3-Cl-4-CF3)][NMeNle][Ac5c][NMeChg][NMeD]-Piperidide; lactam N-11) | 12 nM |
| CC[C@H](C)[C@@H]1NC(=O)[C@H](CC(C)C)N(C)C(=O)C[C@@H](C(=O)N(C)C)N(C)C(=O)[C@H]([C@@H](C)CC)N(C)C(=O)C2(CCCC2)NC(=O)[C@@H]2CCCN2C(=O)[C@H](CCc2ccc(C(F)(F)F)c(Cl)c2)NC(=O)CN(C)C(=O)[C@H](Cc2ccc(C)cc2)N(C)C(=O)[C@@H]2CCN2C(=O)[C@H](C)N(C)C1=O [Compound 1842] ([NMeL]I[NMeA][Aze][NMePhe(4-Me)][Sar][hPhe(3-Cl-4-CF3)]P[Ac5c][NMeI][NMeD]-NMe2; lactam N-11) | 0.66 nM |

====

- TESTED TARGET: protein-protein interaction between Kras and SOS1 (biotin-tagged human Kras loaded with GDP, His-tagged human SOS1) (Homo sapiens (Human), UniProt P01116, G12D)
- MEASUREMENT DESCRIPTION: Protein-protein interaction inhibition between Kras and SOS1 (KrasG12D-SOS PPI) using AlphaScreen;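 also: kras produced in E. coli, Ni-coupled donor beads and streptavidin acceptor beads, excitation 680 nm with emission detected at 520–620 nm via singlet oxygen transfer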
- Type: biochemical
- PROTOCOL CONDITIONS: AlphaScreen; biotin-tagged human Kras loaded with GDP, His-tagged human SOS1; read-out: KRAS G12D-SOS PPI IC50
pIC50: −log10 of the molar value. Bridge positions count the residues as written; N and C are the ends. Square brackets hold non-standard residues; d marks the D form. Peptide text beside a SMILES is read from it. * marks the point of attachment. hPhe(3-Cl-4-CF3) = N[C@@H](CCc1ccc(C(F)(F)F)c(Cl)c1)C(=O)O; NMePhe(4-Me) = CN[C@@H](Cc1ccc(C)cc1)C(=O)O; NMeGly(cPent) = CN[C@H](C(=O)O)C1CCCC1; NMeCha = CN[C@@H](CC1CCCCC1)C(=O)O; NMeI = CC[C@H](C)[C@H](NC)C(=O)O; NMeD = CN[C@@H](CC(=O)O)C(=O)O; NMeL = CN[C@@H](CC(C)C)C(=O)O; NMePra = C#CC[C@H](NC)C(=O)O; NMeV = CN[C@H](C(=O)O)C(C)C; NMeA = CN[C@@H](C)C(=O)O; Piperidide = C1CCN(*)CC1; Pyrrolidide = C1CCN(*)C1; Ac5c = NC1(C(=O)O)CCCC1; Aze = O=C(O)[C@@H]1CCN1; Ac3c = NC1(C(=O)O)CC1; NBuGly = CCCCNCC(=O)O; Sar = CNCC(=O)O

| MOLECULE | pIC50 |
| --- | --- |
| CC[C@H](C)[C@@H]1NC(=O)[C@H](CC(C)C)N(C)C(=O)C[C@@H](C(=O)N2CCCC2)N(C)C(=O)[C@H]([C@@H](C)CC)N(C)C(=O)C2(CCCC2)NC(=O)[C@@H]2CCCN2C(=O)[C@H](CCc2ccc(C(F)(F)F)c(Cl)c2)NC(=O)CN(C)C(=O)[C@H](C2CCCC2)N(C)C(=O)[C@@H]2CCN2C(=O)[C@H](C)N(C)C1=O [Compound 799] ([NMeL]I[NMeA][Aze][NMeGly(cPent)][Sar][hPhe(3-Cl-4-CF3)]P[Ac5c][NMeI][NMeD]-Pyrrolidide; lactam N-11) | 8.85 |
| CC[C@H](C)[C@@H]1NC(=O)[C@H](CC(C)C)N(C)C(=O)C[C@@H](C(=O)N2CCCCC2)N(C)C(=O)[C@H](C(C)C)N(C)C(=O)[C@H](C)NC(=O)[C@@H]2CCCN2C(=O)[C@H](CCc2ccc(C(F)(F)F)c(Cl)c2)NC(=O)CN(C)C(=O)[C@H](CC2CCCCC2)N(C)C(=O)[C@@H]2CCN2C(=O)[C@H](C)N(C)C1=O [Compound 1211] ([NMeL]I[NMeA][Aze][NMeCha][Sar][hPhe(3-Cl-4-CF3)]PA[NMeV][NMeD]-Piperidide; lactam N-11) | 7.51 |
| CCCCN1CC(=O)N(C)[C@@H]([C@@H](C)CC)C(=O)N(C)[C@H](C(=O)N(C)C)CC(=O)N(C)[C@@H](CC(C)C)C(=O)N[C@@H]([C@@H](C)CC)C(=O)N(C)[C@@H](C)C(=O)N2CC[C@H]2C(=O)N(C)[C@@H](Cc2ccc(C)cc2)C(=O)N(C)CC(=O)N[C@@H](CCc2ccc(C(F)(F)F)c(Cl)c2)C(=O)N2CCC[C@H]2C1=O [Compound 215] ([NMeL]I[NMeA][Aze][NMePhe(4-Me)][Sar][hPhe(3-Cl-4-CF3)]P[NBuGly][NMeI][NMeD]-NMe2; lactam N-11) | 7.54 |
| CC[C@H](C)[C@@H]1NC(=O)[C@H](CC(C)C)N(C)C(=O)C[C@@H](C(=O)N2CCCCC2)N(C)C(=O)[C@H](C(C)C)N(C)C(=O)C2(CC2)NC(=O)[C@@H]2CCCN2C(=O)[C@H](CCc2ccc(C(F)(F)F)c(Cl)c2)NC(=O)CN(C)C(=O)[C@H](CC2CCCCC2)N(C)C(=O)[C@@H]2CCN2C(=O)[C@H](C)N(C)C1=O [Compound 1695] ([NMeL]I[NMeA][Aze][NMeCha][Sar][hPhe(3-Cl-4-CF3)]P[Ac3c][NMeV][NMeD]-Piperidide; lactam N-11) | 8.10 |
| C#CC[C@H]1C(=O)N[C@@H]([C@@H](C)CC)C(=O)N(C)[C@@H](C)C(=O)N2CC[C@H]2C(=O)N(C)[C@@H](CC2CCCCC2)C(=O)N(C)CC(=O)N[C@@H](CCc2ccc(C(F)(F)F)c(Cl)c2)C(=O)N2CCC[C@H]2C(=O)NC2(CCCC2)C(=O)N(C)[C@@H](C(C)C)C(=O)N(C)[C@H](C(=O)N2CCCCC2)CC(=O)N1C [Compound 559] ([NMePra]I[NMeA][Aze][NMeCha][Sar][hPhe(3-Cl-4-CF3)]P[Ac5c][NMeV][NMeD]-Piperidide; lactam N-11) | 8.77 |

Taken from patent US20240148821A1.
